# Tested on: Plasmodium falciparum
# protocol-text: Antiplasmodial activity against chloroquine-resistant Plasmodium falciparum W2 assessed as inhibition of parasite LDH activity […] after 72 hrs by malstat reagent method
# Assay type: functional, organism-based
# condition-set: W2, 72 h
endpoint-label: pIC50
Give only the number. pIC50 is defined as minus log10 of concentration in molar units.

Below: 3 molecules and their reported pIC50.
CCCCCCCCCCCCNC(=O)C1C(C(=O)O)[C@@H]2CC[C@H]1O2 (stereo not given in full) :: 3.97
O=C(O)C1C(C(=O)Nc2ccccc2)[C@H]2CC[C@@H]1O2 (stereo not given in full) :: 3.44
CCCCCCOc1ccc(NC(=O)C2C(C(=O)O)[C@@H]3CC[C@H]2O3)cc1 (stereo not given in full) :: 4.15

We now examine a further molecule.
[ask] Given the entry C=Cc1ccc(NC(=O)C2C(C(=O)O)[C@@H]3CC[C@H]2O3)cc1 (stereo not given in full) , report its measured pIC50.
[reply] 3.40

The values you see were collected from ChEMBL document CHEMBL1268944.
